Test: AUC in rat at 10 mg/kg
Format: ADME, organism-based
Set-up: dose 10 mg/kg
Details: plasma
PROPERTY LABEL: AUC (ng·h/mL)
One number for each entry, in ng·h/mL.

C[C@@](CCc1ccc(-c2ccccc2)cc1)(C(=O)NO)S(C)(=O)=O : 2900

// batch mode: one AUC value per listed entry
1. COc1ccc(-c2ccn(CC[C@](C)(C(=O)NO)S(C)(=O)=O)c(=O)c2)c(F)c1
2. C[C@@](CCn1ccc(-c2ccc(-n3nccn3)cc2)cc1=O)(C(=O)NO)S(C)(=O)=O

Solution:
[2300, 5200]

----------
Experiment: Fraction unbound in human plasma relative to untreated control
Type: ADME, cell-free
Would you kindly list fraction unbound for each of these compounds?

C[C@@](CCc1ccc(-c2ccccc2)cc1)(C(=O)NO)S(C)(=O)=O : 0.023
C[C@@](CCn1ccc(-c2ccccc2)cc1=O)(C(=O)NO)S(C)(=O)=O : 0.14

I'm hoping you can list fraction unbound for every compound here, please.
1. C[C@@](CCn1ccc(-c2ccc(-n3nccn3)cc2)cc1=O)(C(=O)NO)S(C)(=O)=O
2. COc1ccc(-c2ccn(CC[C@](C)(C(=O)NO)S(C)(=O)=O)c(=O)c2)c(F)c1

Solution:
[0.25, 0.31]

----------
For each of the compounds below, state its IC50.
Biological target: UDP-3-O-acyl-N-acetylglucosamine deacetylase (Pseudomonas aeruginosa (strain ATCC 15692 / PAO1 / 1C / PRS 101 / LMG12228), UniProt P47205)
Sequence (P47205 whole entry): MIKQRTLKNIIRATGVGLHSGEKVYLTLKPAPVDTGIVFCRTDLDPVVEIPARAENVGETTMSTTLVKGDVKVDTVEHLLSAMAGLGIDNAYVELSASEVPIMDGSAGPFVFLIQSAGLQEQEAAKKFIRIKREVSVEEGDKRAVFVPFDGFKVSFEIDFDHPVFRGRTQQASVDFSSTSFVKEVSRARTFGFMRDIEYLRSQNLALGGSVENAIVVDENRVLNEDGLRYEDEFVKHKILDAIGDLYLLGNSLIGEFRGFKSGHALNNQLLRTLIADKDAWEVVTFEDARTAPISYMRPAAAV
Assay: Inhibition of Pseudomonas aeruginosa LpxC expressed in Escherichia coli using UDP-3-O-N-acetylglucosamine substrate measured after 30 mins by mass spectrometry
Answers are plain numbers, in nM.

As a guide, the following entries are already answered.
C[C@@](CCn1ccc(-c2cc(F)ccc2F)cc1=O)(C(=O)NO)S(C)(=O)=O : 4.4
Cc1cn(CC[C@](C)(C(=O)NO)S(C)(=O)=O)c(=O)cc1-c1ccccc1 : 30
C[C@@](CCn1ccc(-c2ccc(-c3ccncc3)cc2)cc1=O)(C(=O)NO)S(C)(=O)=O : 1.2
CC(CCc1ccc(-c2ccccc2)cn1)(C(=O)NO)S(C)(=O)=O (racemic) : 13
C[C@@](CCn1ccc(-c2ccccc2F)cc1=O)(C(=O)NO)S(C)(=O)=O : 2.2
CC(CCc1ccc(-c2ccccc2)nc1O)(C(=O)NO)S(C)(=O)=O (racemic) : 53

Provide each entry's IC50 from the list below.
1. C[C@@](CCn1ccc(-c2ccccc2)nc1=O)(C(=O)NO)S(C)(=O)=O
2. COc1ncc(-c2ccc(-c3ccn(CC[C@](C)(C(=O)NO)S(C)(=O)=O)c(=O)c3)cc2)cn1

Solution:
1: 57; 2: 2

Exercise: Fill in the blank: the reported IC50 of C[C@@](CCn1cnc(-c2ccccc2)cc1=O)(C(=O)NO)S(C)(=O)=O is ____.
Solution: 8.5
